- runParameters: in ethyl acetate, 303.15 K
measurementLabel: solubility (mole fraction)

>  <structureString>
CCCCCOC(=O)Nc1nc(=O)n([C@@H]2O[C@H](C)[C@@H](O)[C@H]2O)cc1F

>  <value>
0.0112

$$$$

###

- runParameters: in ethyl acetate, 323.15 K

>  <structureString>
CCCCCOC(=O)Nc1nc(=O)n([C@@H]2O[C@H](C)[C@@H](O)[C@H]2O)cc1F

>  <solubility (mole fraction)>
0.0301

$$$$

###

- runParameters: in ethyl acetate, 313.15 K
measurementLabel: solubility (mole fraction)

>  <structureString>
CCCCCOC(=O)Nc1nc(=O)n([C@@H]2O[C@H](C)[C@@H](O)[C@H]2O)cc1F

>  <value>
0.019

$$$$
